# logD listing for each entry below
METHOD DESCRIPTION: method code SF, from DOI: 10.1016/j.ejps.2012.10.019, PMID: 23131797
SETUP CONDITIONS: pH 10.5
MEASUREMENT LABEL: logD

[
  {
    "COMPOUND": "COC(=O)CCNc1nc(-c2cccnc2)nc2sc3c(c12)CCCC3",
    "MEASUREMENT": 4.69
  },
  {
    "COMPOUND": "CC(C)(C)c1cc(-c2nc(-c3ccc(C(F)(F)F)cn3)no2)n(Cc2ccccc2)n1",
    "MEASUREMENT": 6.58
  },
  {
    "COMPOUND": "COc1cc(C2C(C#N)=C(N)Oc3cc(C)[nH]c(=O)c32)cc(OC)c1OC (stereo not drawn)",
    "MEASUREMENT": 2.55
  },
  {
    "COMPOUND": "CC1=NN(c2ccccc2)C(=O)C1Sc1nc(N)c(C#N)c(-c2ccc(C)cc2)c1C#N (stereo not drawn)",
    "MEASUREMENT": 4.99
  },
  {
    "COMPOUND": "C=C(C)CSc1nnc(-c2cccc(S(=O)(=O)N3CCOCC3)c2)n1C1CCCC1",
    "MEASUREMENT": 4.73
  },
  {
    "COMPOUND": "Nc1cccc2c1C(=O)N(C(=O)c1cc(-c3ccccc3Cl)nc3ccccc13)C2=O",
    "MEASUREMENT": 4.63
  },
  {
    "COMPOUND": "Cc1cc(C)n(C2=NCCN2S(=O)(=O)c2cc(C(F)(F)F)cc(C(F)(F)F)c2)n1",
    "MEASUREMENT": 4.7
  },
  {
    "COMPOUND": "COC(=O)COc1cc2occ(-c3csc(C)n3)c(=O)c2cc1C",
    "MEASUREMENT": 3.9
  },
  {
    "COMPOUND": "Cc1nc2c(N)nnc(N)c2nc1C",
    "MEASUREMENT": 1.14
  },
  {
    "COMPOUND": "Cc1nc(N(C)C)c2sc(=S)n(-c3ccccc3)c2n1",
    "MEASUREMENT": 3.62
  },
  {
    "COMPOUND": "CCOC(=O)c1sc(NCCNc2nc(C)c(C(=O)OCC)s2)nc1C",
    "MEASUREMENT": 4.66
  },
  {
    "COMPOUND": "CCNc1nc(NC(C)C)nc(Oc2ccc(OCC)nn2)n1",
    "MEASUREMENT": 3.14
  },
  {
    "COMPOUND": "CCN(CC)c1ccc(C=C2C(=O)c3ccccc3C2=O)c(OC)c1",
    "MEASUREMENT": 5.05
  },
  {
    "COMPOUND": "CCn1cc(C2C3=C(CC(C)(C)CC3=O)N(c3ccc(C)cc3)C3=C2C(=O)CC(C)(C)C3)c(C)n1",
    "MEASUREMENT": 5.35
  },
  {
    "COMPOUND": "COCCn1c(C)cc(C(=O)CSc2nnc3[nH]c4ccccc4n23)c1C",
    "MEASUREMENT": 3.45
  },
  {
    "COMPOUND": "Cc1nn(C)cc1-c1cc(C(F)(F)F)n2ncc(C(=O)N(C3CCCCC3)C3CCCCC3)c2n1",
    "MEASUREMENT": 5.81
  },
  {
    "COMPOUND": "Cc1ccc(S(=O)(=O)N(C)c2ccc(OCC(=O)N3CCN(c4ncccn4)CC3)cc2)cc1",
    "MEASUREMENT": 4.46
  },
  {
    "COMPOUND": "CC(=O)Oc1cc(C(=O)Nc2ccc(Oc3ccccc3)cc2)cc(OC(C)=O)c1OC(C)=O",
    "MEASUREMENT": 2.89
  },
  {
    "COMPOUND": "CCn1c(SCc2ccccc2F)nc2sc(C)c(C)c2c1=O",
    "MEASUREMENT": 5.86
  },
  {
    "COMPOUND": "Cc1nnc2c(=O)n(CCNc3ncc(C(F)(F)F)cc3Cl)c3ccc(Cl)cc3n12",
    "MEASUREMENT": 4.57
  },
  {
    "COMPOUND": "Cn1c(=O)c(C(=O)CN2CCSc3ccccc32)c(N)n(Cc2ccccc2)c1=O",
    "MEASUREMENT": 4.71
  },
  {
    "COMPOUND": "O=C(CSc1nnc(-c2ccccc2)n1-c1ccccc1)N1CCN(C(=O)c2ccccc2)CC1",
    "MEASUREMENT": 4.64
  },
  {
    "COMPOUND": "Nc1nc(SCC(=O)N(CCO)CCO)nc2sc3c(c12)CCCC3",
    "MEASUREMENT": 3.2
  }
]
